Exercise: state measured chromatographic logP for each of the compounds provided.
- assay.overview: physchem
- particulars: pH 7.8
Hey, just send me the number, nothing else.

Could you share which chromatographic logP value was measured for C#CCOc1ccccc1C1CC(c2csc(C3CCN(C(=O)Cn4nc(C(F)F)cc4C(F)F)CC3)n2)=NO1 (stereo not drawn) [(I-1)] ?
3.34

I have this compound here, C#CCOc1cc(OC)ccc1C1CC(c2csc(C3CCN(C(=O)Cn4nc(C(F)F)cc4C(F)F)CC3)n2)=NO1 (stereo not drawn) [(I-9)] , and I need its recorded chromatographic logP.
3.2

// lookup chromatographic logP for C#CCOc1cccc(F)c1C1CC(c2csc(C3CCN(C(=O)Cn4nc(C(F)F)cc4C(F)F)CC3)n2)=NO1 (stereo not drawn) [(I-5)]
3.18

What value of chromatographic logP has been recorded for this entry: C#CCOc1cccc(C2CC(c3csc(C4CCN(C(=O)Cn5nc(C(F)F)cc5C(F)F)CC4)n3)=NO2)c1 (stereo not drawn) [(I-3)]
3.24

For C#CCOc1ccc(F)cc1C1CC(c2csc(C3CCN(C(=O)Cn4nc(C(F)F)cc4C(F)F)CC3)n2)=NO1 (stereo not drawn) [(I-8)] , what is its reported chromatographic logP?
3.44

Reported chromatographic logP for C#CCOc1c(F)cccc1C1CC(c2csc(C3CCN(C(=O)Cn4nc(C(F)F)cc4C(F)F)CC3)n2)=NO1 (stereo not drawn) [(I-10)] : what is it?
3.48

###

- Test system: Alternaria solani; note: test concentration or dose not given here
- assay.overview: whole plant or invertebrate
- Type: in vivo
- particulars: in vivo
observable: Efficacy in % found (%)
The reply should be a number in %, with the unit left off.

Look up Efficacy in % found: [Cl-].[Cu+2].[Cu+2].[OH-].[OH-].[OH-] [5.8, copper oxychloride]
7

Can you share its Efficacy in % found? I mean this molecule: C#CCOc1cccc(Cl)c1C1CC(c2csc(C3CCN(C(=O)Cn4nc(C(F)F)cc4C(F)F)CC3)n2)=NO1 (centres unmarked)
29

Give its Efficacy in % found value. Item: CC(C)C1C2CCC1c1c(NC(=O)c3cn(C)nc3C(F)F)cccc12 (centres unmarked)
60

Can you look up the measured Efficacy in % found of C#CCOc1cccc(F)c1C1CC(c2csc(C3CCN(C(=O)Cn4nc(C(F)F)cc4C(F)F)CC3)n2)=NO1 (centres unmarked) for me?
29

Could you tell me which Efficacy in % found is on file for CO/C=C(/C(=O)OC)c1ccccc1Oc1cc(Oc2ccccc2C#N)ncn1 ?
9

What does the record list as Efficacy in % found for Cn1cc(C(=O)Nc2ccc(F)cc2-c2ccc(Cl)c(Cl)c2)c(C(F)F)n1 ?
60

Any idea what Efficacy in % found was measured for [Cu+2].[OH-].[OH-] [5.5, copper hydroxide] ?
16

Name the recorded Efficacy in % found for Cn1cc(C(=O)Nc2ccccc2-c2cc(F)c(F)c(F)c2)c(C(F)F)n1 .
63

###

- assay.overview: physchem
- particulars: pH 2.7
observable: chromatographic logP
// no unit string in output, number only

# chromatographic logP lookup, item C#CCOc1ccccc1C1CC(c2csc(C3CCN(C(=O)Cn4nc(C(F)F)cc4C(F)F)CC3)n2)=NO1 (stereo not shown) [(I-1)]
3.24

Look at this molecule and give its reported chromatographic logP. C#CCOc1cccc(C2CC(c3csc(C4CCN(C(=O)Cn5nc(C(F)F)cc5C(F)F)CC4)n3)=NO2)c1 (stereo not shown) [(I-3)]
3.16

Request the reported chromatographic logP associated with C#CCOc1ccc(F)c(C2CC(c3csc(C4CCN(C(=O)Cn5nc(C(F)F)cc5C(F)F)CC4)n3)=NO2)c1F (stereo not shown) [(I-7)]
3.17

Requested read-out: chromatographic logP. Entry: O=C(Cn1nc(C(F)F)cc1C(F)F)N1CCC(c2nc(C3=NOC(c4c(F)cc(O)cc4F)C3)cs2)CC1 (stereo not shown)
2.58

Requested read-out: chromatographic logP. Entry: C#CCOc1cccc(F)c1C1CC(c2csc(C3CCN(C(=O)Cn4nc(C(F)F)cc4C(F)F)CC3)n2)=NO1 (stereo not shown) [(I-5)]
3.15

Query: chromatographic logP; subject: C#CCOc1cc(F)c(C2CC(c3csc(C4CCN(C(=O)Cn5nc(C(F)F)cc5C(F)F)CC4)n3)=NO2)c(F)c1 (stereo not shown) [(I-4)]
3.3

May I ask what chromatographic logP has been recorded for C#CCOc1cccc(Cl)c1C1CC(c2csc(C3CCN(C(=O)Cn4nc(C(F)F)cc4C(F)F)CC3)n2)=NO1 (stereo not shown) [(I-6)] ?
3.4
